experiment: LNP size distribution, PDI and ζ potential by dynamic light scattering; assay type: physicochemical; details: LNP-siRNA formulations, DLS
reportedProperty: Size (d · nm)

// known answers, use as guide
Need Size (d · nm) of `CCCCC/C=C\C/C=C\CCCCCCCCN(CCCCCCCC/C=C\C/C=C\CCCCC)NCCN(C)C` , thanks.
52.5

Need Size (d · nm) of `CCCCC/C=C\C/C=C\CCCCCCCCN(CCCCCCCC/C=C\C/C=C\CCCCC)NC(=O)[C@@H](N)CCCCN(C)C` , thanks.
108.5

(I) CCCCC/C=C\C/C=C\CCCCCCCCN(CCCCCCCC/C=C\C/C=C\CCCCC)CCOC(=O)CCCN1CCN(C)CC1
(II) CCCCC/C=C\C/C=C\CCCCCCCCN(CCCCCCCC/C=C\C/C=C\CCCCC)OC(=O)CCCN(C)C
(III) CCCCC/C=C\C/C=C\CCCCCCCCN(CCCCCCCC/C=C\C/C=C\CCCCC)NC(=O)CCCN1CCN(C)CC1
Sort (3 compounds) by Size (d · nm): min first. Output spec: labels arranged per the requested ranking.
II, III, I
